# Test Name: Pharmacokinetic study in cynomolgus monkeys after oral (nasogastric) gavage, sublingual and intravenous administration
# Type: in vivo
# Test Parameters: cynomolgus monkey, plasma, other: sublingual, 5 mg/kg, Plasma Bumetanide Dibenzylamide concentration, Mean, monkey, SL, dose column 5 mg/kg (title 30 mg/kg), Fourth Formulation (Form 2), 8.0 h, N=4
Readout Label: concentration at 8 h (ng/mL)
Answers are plain numbers, in ng/mL.

Asked: Endpoint output: concentration at 8 h of CCCCNc1cc(C(=O)N(Cc2ccccc2)Cc2ccccc2)cc(S(N)(=O)=O)c1Oc1ccccc1 [Bumetanide Dibenzylamide] . Value?
Given back: 0.41

###

# Test Name: Pharmacokinetic study in cynomolgus monkeys after oral (nasogastric) gavage, sublingual and intravenous administration
# Format: in vivo
# Test Parameters: cynomolgus monkey, plasma, intravenous, 2 mg/kg, Plasma Bumetanide Dibenzylamide concentration, Mean, monkey, dose column 2 mg/kg (title 30 mg/kg), Third Formulation (Form 4), 4.00 h, N=4
Readout Label: concentration at 4 h (ng/mL)
Give bare numbers, in ng/mL.

Asked: Query: concentration at 4 h; subject: CCCCNc1cc(C(=O)N(Cc2ccccc2)Cc2ccccc2)cc(S(N)(=O)=O)c1Oc1ccccc1 [Bumetanide Dibenzylamide]
Given back: 114
